Please go through the items and note down their inhibition at 3.5 µM.
tgt: Edg-1/S1P1 receptor (Homo sapiens, UniProt P21453)
Construct: expressed in transfected cells; host or cells: human osteogenic sarcoma U2OS cells: Edg-1 Transfluor U2OS WT Clone #37 (assay I), Edg-1 Transfluor U2OS Clone #3 (assay II)
Sequence (P21453 whole entry): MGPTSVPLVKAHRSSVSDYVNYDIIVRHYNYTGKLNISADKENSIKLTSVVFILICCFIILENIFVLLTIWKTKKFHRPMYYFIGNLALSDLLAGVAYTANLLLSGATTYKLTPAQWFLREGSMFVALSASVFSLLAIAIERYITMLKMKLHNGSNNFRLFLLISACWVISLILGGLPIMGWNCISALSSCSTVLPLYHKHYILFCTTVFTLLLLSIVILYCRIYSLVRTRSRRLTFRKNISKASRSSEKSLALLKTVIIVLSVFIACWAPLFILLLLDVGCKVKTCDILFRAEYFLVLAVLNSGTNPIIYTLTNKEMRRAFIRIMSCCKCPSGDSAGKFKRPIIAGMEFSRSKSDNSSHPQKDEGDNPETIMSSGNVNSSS
method_notes: In vitro cell based receptor activation assay - Transfluor assay (assay I or II; beta-arrestin GFP relocalization after S1P stimulation)
run_parameters: at 3.50 μM (titrated from top concentration 10 μM)
Number in %, nothing else.

Data request, read-out inhibition at 3.5 µM, for CCn1c(C(C)(C)NS(=O)(=O)c2ccc(C#N)nc2)nc2ccc(C(F)(F)F)cc21
82.9

Further, for CCn1c(C(C)NS(=O)(=O)c2cnc(N)c(Cl)c2)nc2ccc(C(F)(F)F)cc21 (stereo not shown) ?
87.1

And for CCn1c(C(C)(C)NS(=O)(=O)c2ccc(Cl)cc2)nc2ccc(C(F)(F)F)cc21 ?
82.9

Also, CCn1c([C@@H](C)NS(=O)(=O)c2ccc(C#N)cc2)nc2cnc(C(F)(F)F)cc21 please.
91.8

CCn1c([C@@H](C)NS(=O)(=O)c2ccc(C#N)cn2)nc2ccc(C(F)(F)F)cc21 ?
72

Now the same for CCn1c([C@@H](C)NS(=O)(=O)c2ccc(F)cc2)nc2ncc(C(F)(F)F)cc21
90.5

Would you kindly repeat that for CCn1c([C@@H](C)NS(=O)(=O)c2ccc(C#N)cc2)nc2cnc(OC)cc21 ?
91.6
